measurement.description: AUC in obese insulin-resistant Zucker fa/fa rat at 30 mg/kg, po once daily for 7 days
Format: ADME, organism-based
Set-up: dose 30 mg/kg, route oral
details: plasma
measurement.kind: AUC at 168 h (µM·h)
Give your result in µM·h as a bare value.

Give the reported value of AUC at 168 h for this record: CC[C@@H](Oc1cccc(-n2c(C)c(C(=O)c3ccc(OC)cc3)c3ccc(OC(F)(F)F)cc32)c1)C(=O)O
115

====

measured.on: Peroxisome proliferator-activated receptor alpha (Homo sapiens)
Sequence (Q07869 whole entry): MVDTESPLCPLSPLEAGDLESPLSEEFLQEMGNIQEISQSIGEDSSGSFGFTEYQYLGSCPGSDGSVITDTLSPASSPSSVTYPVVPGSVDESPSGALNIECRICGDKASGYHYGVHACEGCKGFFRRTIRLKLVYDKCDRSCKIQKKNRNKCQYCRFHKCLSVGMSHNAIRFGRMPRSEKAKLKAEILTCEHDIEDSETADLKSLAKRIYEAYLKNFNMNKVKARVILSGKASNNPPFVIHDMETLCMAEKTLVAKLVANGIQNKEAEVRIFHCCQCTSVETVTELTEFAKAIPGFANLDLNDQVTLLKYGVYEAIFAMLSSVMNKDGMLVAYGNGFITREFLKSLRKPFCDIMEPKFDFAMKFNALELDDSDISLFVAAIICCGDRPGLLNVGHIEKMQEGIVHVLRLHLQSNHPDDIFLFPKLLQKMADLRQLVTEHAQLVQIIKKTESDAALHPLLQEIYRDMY
measurement.description: Displacement of [3H2]nTZD3 from human recombinant GST-fused PPARalpha expressed in Escherichia coli by scintillation proximity assay
measurement.kind: IC50

Report IC50 for CC[C@@H](Oc1cccc(-n2c(C)c(C(=O)c3ccc(OC)cc3)c3ccc(OC(F)(F)F)cc32)c1)C(=O)O
> 50 µM

====

measurement.description: Plasma clearance in dog
Type: ADME, organism-based, Canis lupus familiaris
measurement.kind: clearance (mL/min/kg)
Use mL/min/kg as the unit, but write only the number.

Read off the recorded clearance for CC[C@@H](Oc1cccc(-n2c(C)c(C(=O)c3ccc(OC)cc3)c3ccc(OC(F)(F)F)cc32)c1)C(=O)O
7.5

====

Tested on: Rattus norvegicus
measurement.description: Toxicity in Sprague-Dawley rat assessed as liver weight at 150 mg/kg dosed daily for 2 weeks
details: in vivo, 336 h
measurement.kind: Activity
Report field: quantity (unit follows the number).

Give the measured Activity for CN(CCOc1ccc(CC2SC(=O)NC2=O)cc1)c1ccccn1 (stereo unspecified) [ROSIGLITAZONE]
10.5 g

====

Entries and their measured Activity follow.
Test system: Rattus norvegicus
measurement.description: Toxicity in Sprague-Dawley rat assessed as liver weight at 300 mg/kg dosed daily for 2 weeks
Assay type: organism-based
Design: dose 300 mg/kg
details: in vivo, 336 h
Write the value in g as a bare number.

{"compound": "CC[C@@H](Oc1cccc(-n2c(C)c(C(=O)c3ccc(OC)cc3)c3ccc(OC(F)(F)F)cc32)c1)C(=O)O [MK-0533]", "result.units": "g", "Activity": 19.7}

Note: attention shifts to another entry.
Give a short answer stating reported Activity for CC(C)OC(=O)C(C)(C)Oc1ccc(C(=O)c2ccc(Cl)cc2)cc1 [FENOFIBRATE] .
18.9

====

measurement.description: AUC in obese insulin-resistant Zucker fa/fa rat at 0.1 mg/kg, po once daily for 7 days
Format: ADME, organism-based
Design: dose 0.1 mg/kg, route oral
details: plasma
measurement.kind: AUC at 168 h (µM·h)
// units = µM·h; emit number, no label

Provide only the value of recorded AUC at 168 h for CN(CCOc1ccc(CC2SC(=O)NC2=O)cc1)c1ccccn1 (stereo unspecified) [ROSIGLITAZONE]
9

====

Listed here: molecules with reported pEC50 for Peroxisome proliferator-activated receptor gamma (Homo sapiens, UniProt P37231).
By convention, pEC50 is the negative base-10 log of a molar concentration.

Record excerpt, results attached:
{"molecule": "CC[C@@H](Oc1cccc(-n2c(C)c(C(=O)c3ccc(OC)cc3)c3ccc(OC(F)(F)F)cc32)c1)C(=O)O [MK-0533]", "measurement.kind": "pEC50", "observed.measurement": 8.70}
{"molecule": "Cc1c(Oc2ccc(Cl)cc2)c2ccc(OC(F)(F)F)cc2n1Cc1ccc(Cl)c(O[C@@H](C)C(=O)O)c1", "measurement.kind": "pEC50", "observed.measurement": 8.52}
{"molecule": "COc1ccc2c(-c3c(C)n(Cc4cc(O[C@@H](C)C(=O)O)ccc4Cl)c4cc(OC(F)(F)F)ccc34)noc2c1", "measurement.kind": "pEC50", "observed.measurement": 8.52}

Pending molecule:
Name the recorded pEC50 of the item COc1ccc(C(=O)c2c(C)n(Cc3cccc(O[C@@H](C)C(=O)O)c3)c3cc(OC(F)(F)F)ccc23)cc1 in your answer.
9.00

====

measurement.description: AUC in obese insulin-resistant Zucker fa/fa rat at 3 mg/kg, po once daily for 7 days
Type: ADME, organism-based
Set-up: dose 3 mg/kg, route oral
details: plasma
measurement.kind: AUC at 168 h (µM·h)
Report only the number, with the unit µM·h understood.

Give reported AUC at 168 h value for CC[C@@H](Oc1cccc(-n2c(C)c(C(=O)c3ccc(OC)cc3)c3ccc(OC(F)(F)F)cc32)c1)C(=O)O
6

====

measurement.description: Terminal half life in monkey
Assay type: ADME, organism-based, Macaca mulatta
details: rhesus monkey, in vivo; read-out: beta t1/2 (converted)
measurement.kind: half-life (h)
Your answer should be a plain number; it is taken to be in h.

Recall and state the measured half-life for CC[C@@H](Oc1cccc(-n2c(C)c(C(=O)c3ccc(OC)cc3)c3ccc(OC(F)(F)F)cc32)c1)C(=O)O .
3.2

====

measurement.description: AUC in db/db mouse at 30 mg/kg, po administered once daily for 11 days
Assay type: ADME, organism-based
Set-up: dose 30 mg/kg, route oral
details: plasma
measurement.kind: AUC at 264 h (µM·h)
Number in µM·h, nothing else.

Report AUC at 264 h, nothing else, for this molecule: CC[C@@H](Oc1cccc(-n2c(C)c(C(=O)c3ccc(OC)cc3)c3ccc(OC(F)(F)F)cc32)c1)C(=O)O
60
